Biological target: hFASN enzyme (full length) (Homo sapiens, UniProt P49327)
Construct: 10 μL hFASN enzyme (full length, 300 ng, purified in house); made in house
Sequence (P49327 whole entry): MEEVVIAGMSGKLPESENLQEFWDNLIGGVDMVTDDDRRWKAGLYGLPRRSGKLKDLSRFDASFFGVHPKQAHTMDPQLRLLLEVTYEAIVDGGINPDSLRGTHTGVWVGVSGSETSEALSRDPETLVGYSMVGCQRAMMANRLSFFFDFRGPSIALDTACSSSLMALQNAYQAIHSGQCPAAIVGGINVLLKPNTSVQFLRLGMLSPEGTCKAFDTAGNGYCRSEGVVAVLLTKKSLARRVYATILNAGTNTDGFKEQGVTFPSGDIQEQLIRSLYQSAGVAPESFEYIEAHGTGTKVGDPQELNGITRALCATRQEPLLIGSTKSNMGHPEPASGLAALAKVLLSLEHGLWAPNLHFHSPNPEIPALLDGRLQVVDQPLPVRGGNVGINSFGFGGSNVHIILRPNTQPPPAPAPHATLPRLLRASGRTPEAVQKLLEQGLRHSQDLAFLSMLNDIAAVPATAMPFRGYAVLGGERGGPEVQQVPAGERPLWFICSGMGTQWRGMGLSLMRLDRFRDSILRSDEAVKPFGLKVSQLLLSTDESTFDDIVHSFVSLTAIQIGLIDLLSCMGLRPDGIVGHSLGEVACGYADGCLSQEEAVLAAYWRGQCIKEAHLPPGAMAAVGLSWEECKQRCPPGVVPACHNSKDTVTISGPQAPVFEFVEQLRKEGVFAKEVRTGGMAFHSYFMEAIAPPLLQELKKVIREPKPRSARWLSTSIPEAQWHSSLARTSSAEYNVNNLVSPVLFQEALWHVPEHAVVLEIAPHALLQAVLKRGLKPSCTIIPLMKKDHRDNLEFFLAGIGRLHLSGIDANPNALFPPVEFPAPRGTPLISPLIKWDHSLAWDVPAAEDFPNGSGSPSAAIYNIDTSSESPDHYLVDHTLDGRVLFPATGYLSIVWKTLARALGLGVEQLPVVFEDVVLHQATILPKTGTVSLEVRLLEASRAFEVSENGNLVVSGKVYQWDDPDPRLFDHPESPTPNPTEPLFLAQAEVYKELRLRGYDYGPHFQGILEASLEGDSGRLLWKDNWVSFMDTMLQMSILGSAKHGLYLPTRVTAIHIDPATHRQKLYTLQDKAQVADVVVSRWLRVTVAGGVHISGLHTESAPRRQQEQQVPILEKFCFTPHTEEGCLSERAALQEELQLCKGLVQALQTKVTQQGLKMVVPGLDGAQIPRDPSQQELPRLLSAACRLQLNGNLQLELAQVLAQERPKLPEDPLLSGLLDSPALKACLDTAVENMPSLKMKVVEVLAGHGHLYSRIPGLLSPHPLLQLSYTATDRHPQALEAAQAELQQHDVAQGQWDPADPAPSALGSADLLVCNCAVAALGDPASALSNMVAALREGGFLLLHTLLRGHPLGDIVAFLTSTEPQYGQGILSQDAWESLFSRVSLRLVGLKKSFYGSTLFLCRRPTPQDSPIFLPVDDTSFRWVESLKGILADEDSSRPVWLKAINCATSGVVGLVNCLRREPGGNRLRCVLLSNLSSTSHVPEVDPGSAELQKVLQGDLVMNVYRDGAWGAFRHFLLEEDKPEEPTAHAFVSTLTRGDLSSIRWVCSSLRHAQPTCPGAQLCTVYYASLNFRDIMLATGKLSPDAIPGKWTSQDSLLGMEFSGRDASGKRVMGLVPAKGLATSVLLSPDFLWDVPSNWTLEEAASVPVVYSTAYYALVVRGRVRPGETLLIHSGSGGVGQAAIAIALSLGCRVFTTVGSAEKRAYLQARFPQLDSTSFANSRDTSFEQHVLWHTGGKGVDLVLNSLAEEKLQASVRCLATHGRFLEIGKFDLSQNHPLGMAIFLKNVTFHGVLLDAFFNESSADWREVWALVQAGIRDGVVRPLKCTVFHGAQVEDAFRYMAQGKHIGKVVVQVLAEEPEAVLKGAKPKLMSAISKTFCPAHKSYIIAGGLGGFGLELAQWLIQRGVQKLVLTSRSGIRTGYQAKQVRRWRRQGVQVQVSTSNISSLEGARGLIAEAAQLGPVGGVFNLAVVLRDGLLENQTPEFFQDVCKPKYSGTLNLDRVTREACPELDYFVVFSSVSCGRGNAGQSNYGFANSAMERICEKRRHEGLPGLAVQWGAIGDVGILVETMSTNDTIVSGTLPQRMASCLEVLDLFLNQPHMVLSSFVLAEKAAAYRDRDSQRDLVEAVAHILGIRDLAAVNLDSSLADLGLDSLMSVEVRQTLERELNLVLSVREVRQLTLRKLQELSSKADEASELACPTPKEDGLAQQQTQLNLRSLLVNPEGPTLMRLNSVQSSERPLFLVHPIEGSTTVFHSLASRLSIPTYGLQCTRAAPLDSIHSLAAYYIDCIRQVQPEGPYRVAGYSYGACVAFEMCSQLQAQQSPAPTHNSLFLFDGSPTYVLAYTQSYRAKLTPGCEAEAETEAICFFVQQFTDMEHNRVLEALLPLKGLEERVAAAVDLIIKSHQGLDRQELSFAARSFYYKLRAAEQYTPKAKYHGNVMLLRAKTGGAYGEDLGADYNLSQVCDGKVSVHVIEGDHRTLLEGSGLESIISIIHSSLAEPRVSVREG
Test: Fatty Acid Synthase (FASN) inhibition scintillation proximity assay
Assay type: biochemical
Details: read-out: Human FASN % inhibition @ 10 μM, 10 μM test compound
Experimental: In this assay, inhibition of FASN activity is measured using ^3H-acetyl-CoA and malonyl-CoA as substrates. ^3H-Acetyl CoA is converted to ^3H-palmitate through a series of reactions by the FASN protein, which contains 7 functional domains and carries out 7 enzymatic reactions to ultimately produce ^3H-palmitate. The assay principle is based upon the fact that ^3H-acetyl-CoA is hydrophilic and the end product, ^3H-palmitate is hydrophobic. […]
Assay endpoint: inhibition at 10 µM (%)

                                   compound                               measured_on  value_units  readout_value
0  Cc1cc(C2=NC3(CC3)C(=O)N2C[C@@H]2CCN(C(=O)C3CC3)C2)ccc1-c1ccc2[nH]ncc2c1  hFASN enzyme (full length) (Homo sapiens, UniProt P49327)            %             95
1  O=C(C1CC1)N1CC(CN2C(=O)C3(CC3)N=C2c2ccc(-c3nc4cc(F)ccc4s3)cc2F)C1  hFASN enzyme (full length) (Homo sapiens, UniProt P49327)            %            100
2  Cc1cc(-c2ccc3cc(C#N)ccc3c2)ccc1C1=NC2(CC2)C(=O)N1CC1CN(C(=O)C2(C)CC2)C1  hFASN enzyme (full length) (Homo sapiens, UniProt P49327)            %            102
3  Cn1nccc1-c1ccc(-c2ccc(C3=NC4(CC4)C(=O)N3C[C@@H]3CCN(C(=O)C4(C)CC4)C3)c(F)c2)cc1  hFASN enzyme (full length) (Homo sapiens, UniProt P49327)            %             96
4  CC(C)Cn1cc(-c2ccc(-c3ccc(C4=NC5(CC5)C(=O)N4CC4CN(C(=O)C5CC5)C4)cc3)cc2)cn1  hFASN enzyme (full length) (Homo sapiens, UniProt P49327)            %             98
5  CC(O)C(=O)N1CC(CN2C(=O)C3(CCOC3)N=C2c2ccc(-c3ccc4c(cnn4C)c3)cc2)C1 (stereo not shown)  hFASN enzyme (full length) (Homo sapiens, UniProt P49327)            %             55
6  O=C(C1CC1)N1CC[C@@H](CN2C(=O)C3(CC3)N=C2c2ccc(-c3ccc4[nH]ccc4c3)s2)C1  hFASN enzyme (full length) (Homo sapiens, UniProt P49327)            %             90

###

target: hFASN enzyme (full length) (Homo sapiens); construct: 10 μL hFASN enzyme (full length, 300 ng, purified in house); made in house; test: Fatty Acid Synthase (FASN) inhibition scintillation proximity assay; format: biochemical; conditions: read-out: Human FASN pIC50 (converted)

Compound	Value units	Qualifier	IC50
COC(=O)N1CC2(C1)N=C(c1ccc(-c3ccc4cccnc4c3)cc1)N(C[C@@H]1CCN(C(=O)C(F)(F)F)C1)C2=O [compound 731]	nM	=	3800
Cc1cc2cc(-c3ccc(C4=NC5(CC5)C(=O)N4C[C@@H]4CCN(C(=O)C5CC5)C4)cc3C)ccc2o1 [compound 388]	nM	=	355
O=C(C1CC1)N1CCC(CN2C(=O)C3(CC3)N=C2c2ccc(-c3cccnc3)cc2)CC1 [compound 6]	nM	=	7240
Cn1cc(-c2ccc(-c3ccc(C4=NC5(CCOC5)C(=O)N4CC4CN(C(=O)[C@H]5CCCO5)C4)cc3)cc2)cn1 (some centres unmarked) [compound 712]	nM	=	2450
Cn1cc(-c2ccc(C3=NC4(CCCC4)C(=O)N3C[C@@H]3CCN(C(=O)C4CC4)C3)cc2)cn1 [compound 13]	nM	>	10000
O=C(C1CC1)N1CCC2(CC1)N=C(c1ccc(-c3ccc4occc4c3)cc1)N(C[C@@H]1CCN(C(=O)C3CC3)C1)C2=O [compound 152]	nM	=	123
O=C(C1CC1)N1CC(CN2C(=O)C3(CC3)N=C2c2ccc(-c3ccc4cc[nH]c4c3)c(F)c2)C1 [compound 442]	nM	=	200
O=C(C1CC1)N1CC(CN2C(=O)C3(CC3)N=C2c2ccc(-c3ccc4occc4c3)c(F)c2)C1 [compound 415]	nM	=	1260
CC(=O)N1CCC2(CC1)N=C(c1ccc(-c3ccc4sc(C)c(C)c4c3)cc1)N(C[C@@H]1CCN(C(=O)C3CC3)C1)C2=O [compound 181]	nM	=	123
Cc1sc2ccc(-c3ccc(C4=NC5(CCN(CCO)CC5)C(=O)N4C[C@@H]4CCN(C(=O)C5CC5)C4)cc3)cc2c1C [compound 742]	nM	=	191
N#Cc1cc2cc(-c3ccc(C4=NC5(CC5)C(=O)N4C[C@@H]4CCN(C(=O)C5CC5)C4)cc3)ccc2o1 [compound 256]	nM	=	53.7
CS(=O)(=O)N1CC(CN2C(=O)C3(CCOC3)N=C2c2ccc(-c3ccc4occc4c3)cc2)C1 (centres unmarked) [compound 898]	nM	>	10000
Cn1cc(-c2ccc(-c3ccc(C4=NC5(CCOC5)C(=O)N4C[C@@H]4CCN(C(=O)[C@H]5CCCO5)C4)cc3)cc2)cn1 (some centres unmarked) [compound 678]	nM	=	372

###

Each entry below lists one item and its recorded log10 of IC50 value.
molecular target: hFASN enzyme (full length) (Homo sapiens); construct: 10 μL hFASN enzyme (full length, 300 ng, purified in house); made in house; experiment: Fatty Acid Synthase (FASN) inhibition scintillation proximity assay; assay type: biochemical; conditions: read-out: Human FASN pIC50 (converted)
Assay endpoint: log10 of IC50 (log10 of the value in µM)

>>> print(df.to_string())
                            chemical_smiles  readout_value
0  COC(=O)N1CCC2(CC1)N=C(c1ccc(-c3ccc4occc4c3)cc1)N(CC1CN(C(=O)C3CC3)C1)C2=O           0.14
1  Cc1cc(-c2ccc3c(c2)OCO3)ccc1C1=NC2(CCCC2)C(=O)N1C[C@@H]1CCN(C(=O)C2CC2)C1          -0.57
2  Cc1ccc2c(-c3ccc(C4=NC5(CC5)C(=O)N4CC4CN(C(=O)C5(C)CC5)C4)c(C)c3)cccc2n1           0.06
3  O=C(C1CC1)N1CC(CN2C(=O)C3(CCNCC3)N=C2c2ccc(-c3ccc4occc4c3)cc2)C1           0.58
4  O=C(C1CC1)N1CC[C@@H](CN2C(=O)C3(CCCC3)N=C2c2ccc(-c3ccc4sccc4c3)cc2F)C1          -1.51
5  Cn1nccc1-c1ccc(-c2ccc(C3=NC4(CC4)C(=O)N3C[C@@H]3CCN(C(=O)C4(O)CC4)C3)c(F)c2)cc1          -1.25

###

biological target: hFASN enzyme (full length) (Homo sapiens, UniProt P49327); construct: 10 μL hFASN enzyme (full length, 300 ng, purified in house); made in house; assay: Fatty Acid Synthase (FASN) inhibition scintillation proximity assay; format: biochemical; details: read-out: Human FASN % inhibition @ 10 μM, 10 μM test compound
Assay endpoint: inhibition at 10 µM (%)

>>> print(df.to_string())
                             chemical_smiles                               measured_on  readout_value
 0  O=C(C1CC1)N1CC(CN2C(=O)C3(CC3)N=C2c2ccc(-c3ccc4cc(F)ccc4c3)cc2F)C1  hFASN enzyme (full length) (Homo sapiens, UniProt P49327)            102
 1  Cc1nc2cc(-c3ccc(C4=NC5(CC5)C(=O)N4CC4CN(C(=O)C5CC5)C4)cc3)ccc2s1  hFASN enzyme (full length) (Homo sapiens, UniProt P49327)             97
 2  O=C(C1CC1)N1CC[C@@H](CN2C(=O)C3(CC3)N=C2c2ccc(-c3ccc4cccc(F)c4c3)cc2)C1  hFASN enzyme (full length) (Homo sapiens, UniProt P49327)             99
 3  Cc1cc(-c2ccc(-c3ccnn3CC3CC3)cc2)ccc1C1=NC2(CC2)C(=O)N1CC1CN(C(=O)C2(C)CC2)C1  hFASN enzyme (full length) (Homo sapiens, UniProt P49327)             31
 4  CC(C)N1CCC2(CC1)N=C(c1ccc(-c3ccc4occc4c3)cc1)N(C[C@@H]1CCN(C(=O)C3CC3)C1)C2=O  hFASN enzyme (full length) (Homo sapiens, UniProt P49327)           96.4
 5  O=C(C1CC1)N1CC[C@@H](CN2C(=O)C3(CCCC3)N=C2c2ccc(-c3ccc4occc4c3)cc2F)C1  hFASN enzyme (full length) (Homo sapiens, UniProt P49327)            116
 6  COC(=O)N1CC2(C1)N=C(c1ccc(-c3ccc(-c4cnn(C)c4)cc3)cc1)N(C[C@@H]1CCN(S(C)(=O)=O)C1)C2=O  hFASN enzyme (full length) (Homo sapiens, UniProt P49327)              8
 7  O=C(C1CC1)N1CC(CN2C(=O)C3(CC3)N=C2c2ccc(-c3ccc4cc[nH]c4c3)c(F)c2)C1  hFASN enzyme (full length) (Homo sapiens, UniProt P49327)             94
 8  O=C(C1CC1)N1CC(CN2C(=O)C3(CC3)N=C2c2ccc(-c3nc4cc(Cl)ccc4s3)cc2F)C1  hFASN enzyme (full length) (Homo sapiens, UniProt P49327)             96
 9  O=C(C1CC1)N1CC[C@@H](CN2C(=O)C3(CC3)N=C2c2ccc(-c3ccc4sccc4c3)c(F)c2)C1  hFASN enzyme (full length) (Homo sapiens, UniProt P49327)            110
10  COC(=O)N1CC(CN2C(=O)C3(CCOCC3)N=C2c2ccc(-c3ccc4cccnc4c3)cc2)C1  hFASN enzyme (full length) (Homo sapiens, UniProt P49327)             38
11  Cc1ccnc2cc(-c3ccc(C4=NC5(CC5)C(=O)N4CC4CN(C(=O)C5CC5)C4)cc3)ccc12  hFASN enzyme (full length) (Homo sapiens, UniProt P49327)             97
12  COc1cc2cc(-c3ccc(C4=NC5(CC5)C(=O)N4C[C@@H]4CCN(C(=O)C5CC5)C4)cc3)ccc2cn1  hFASN enzyme (full length) (Homo sapiens, UniProt P49327)             98
13  Cc1cc(-c2ccc3c(cnn3C)c2)ccc1C1=NC2(CC2)C(=O)N1CC1CN(C(=O)C(C)(C)O)C1  hFASN enzyme (full length) (Homo sapiens, UniProt P49327)             95
